- System: PC-3 prostate
- experiment.description: NCI tumour cell line growth inhibition, 48 h; in the data active = GI50 below about 0.43 µM; inactive = the rest
A correct response names exactly one class from true (1) = active, false (0) = inactive

Previously resolved entries follow.
- item.smiles: "Clc1ccc(-c2ccc(OCCCN3CCN(c4ccncc4)CC3)cc2)cc1"
  label: "false (0)"
- item.smiles: "Cn1cc(-c2cc3nc(-c4c[nH]c5ccccc45)cc(N)n3n2)c2cc(Cl)ccc21"
  label: "false (0)"
- item.smiles: "Cn1cc(-c2cc(N)n3nc(-c4c[nH]c5ccccc45)cc3n2)c2ccccc21"
  label: "false (0)"

Let's switch to this compound now.
For N#Cc1c(NC(=O)c2ccc(C(F)(F)F)cc2)sc2c1CCC(=O)C2 , which call appears in the assay record? true (1)

###

- Test system: HOP-92 NSCLC
- experiment.description: NCI tumour cell line growth inhibition, 48 h
Please provide measured TGI for the entries that follow.

- item.smiles: "N#Cc1c(NC(=O)c2ccc(C(F)(F)F)cc2)sc2c1CCC(=O)C2"
  value.observed: "3.56 µM"
- item.smiles: "COc1ccc(Nc2nc(N)n(Cc3cccc(Br)c3)n2)cc1"
  value.observed: "68.4 µM"
- item.smiles: "Cn1cc(-c2cc3nc(-c4c[nH]c5ccccc45)cc(N)n3n2)c2cc(Cl)ccc21"
  value.observed: "4.1 µM"

Could you now look at the following compound, please?
COc1ccc(C(SCCNCc2cc(N(C)C)ccn2)(c2ccccc2)c2ccccc2)cc1 has a reported TGI of 11 µM

###

- System: SF-268 CNS
- experiment.description: NCI tumour cell line growth inhibition, 48 h
measurement.kind: GI50

- molecule: "Cn1cc(-c2cc3nc(-c4c[nH]c5ccccc45)cc(N)n3n2)c2cc(Cl)ccc21"
  measurement.kind: "GI50"
  value.observed: "2.16 µM"

For each listed entry, give its GI50.
1. Cn1cc(-c2cc(N)n3nc(-c4c[nH]c5ccccc45)cc3n2)c2ccccc21
2. O=C1CCC(N2Cc3cc(CC(=O)Nc4ccc(N5CCCCC5)cc4)ccc3C2=O)C(=O)N1 (centres undefined)
3. COc1ccc(C(SCCNCc2cc(N(C)C)ccn2)(c2ccccc2)c2ccccc2)cc1

["4.25 µM", "40.7 µM", "4.02 µM"]
